All values here come from patent US20130243795A1.

test.target: T1, Human CD27 ECD (ECD 1-173, His6) (human, UniProt P26842 21-193, biotinylated on amine residues (NHS-ester) where used biotinylated)
T1 construct: also called biotinylated human CD27 ECD
T1 sequence (P26842 other isoform, or with tags, fused parts or gaps limits assumed): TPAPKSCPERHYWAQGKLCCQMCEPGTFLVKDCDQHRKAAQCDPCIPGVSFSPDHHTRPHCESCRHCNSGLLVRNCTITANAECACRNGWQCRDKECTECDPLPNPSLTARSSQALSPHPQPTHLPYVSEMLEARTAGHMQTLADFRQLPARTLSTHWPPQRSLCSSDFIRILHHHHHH
method: single point Fab ELISA

binder	binding result
F292 (Fab, V domains shown, also called H39/L173) VH: EVQLLESGGGLVQPGGSLRLSCAASGFTFSSYTMSWVRQAPGKGLEWVSYISSGGGNTYYPDSVKGRFTISRDNSKNTLYLQMNSLRAEDTAVYYCARHRGNPFDYWGQGTLVTVSS VL: DIQMTQSPSSLSASVGDRVTITCRASKSVSHVRWSFMHWYQQKPGKAPKLLIYLASNLESGVPSRFSGSGSGTDFTLTISSLQPEDFATYYCQHSRELPWTFGQGTKVEIK	binds
F256 (Fab, V domains shown, also called H39/L137) VH: EVQLLESGGGLVQPGGSLRLSCAASGFTFSSYTMSWVRQAPGKGLEWVSYISSGGGNTYYPDSVKGRFTISRDNSKNTLYLQMNSLRAEDTAVYYCARHRGNPFDYWGQGTLVTVSS VL: DIQMTQSPSSLSASVGDRVTITCRASKSVSTSGYSFMHWYQQKPGKAPKLLIYVGSRLDYGVPSRFSGSGSGTDFTLTISSLQPEDFATYYCQHSRELPWTFGQGTKVEIK	binds
F302 (Fab, V domains shown, also called H39/L179) VH: EVQLLESGGGLVQPGGSLRLSCAASGFTFSSYTMSWVRQAPGKGLEWVSYISSGGGNTYYPDSVKGRFTISRDNSKNTLYLQMNSLRAEDTAVYYCARHRGNPFDYWGQGTLVTVSS VL: DIQMTQSPSSLSASVGDRVTITCRASKSVSLIRWSFMHWYQQKPGKAPKLLIYLASNLESGVPSRFSGSGSGTDFTLTISSLQPEDFATYYCQHSRELPWTFGQGTKVEIK	binds
